Test system: human glioblastoma (U251)
Test: SRB cytotoxicity assay, U251
Type: cell-based
Conditions: U-251, SRB method, 48 h exposure, ± SD, read-out: Cell Line IC50 U251
readout: IC50 (nM)
Dear colleague, please return just the value in nM, with no unit written.

>>> measured_value("COC1C(O)C(CO)OC(OC2C(O)C(CO)OC(OC3C(C)OC(OC4C(OC5CCC6(C)C7=CC(O)C89C(=O)OC(C)(CCCC(C)(C)OC(C)=O)C8(O)CCC9(C)C7CCC6C5(C)C)OCC(OS(=O)(=O)O)C4O)C(O)C3O)C2O)C1O (stereo not drawn) [Inornatoside B (2)]")
540
>>> measured_value("CC(=O)OC(C)(C)CCCC1(C)OC(=O)C23C(O)C=C4C(CCC5C4(C)CCC(OC4OCC(OS(=O)(=O)O)C(O)C4OC4OC(C)C(O)C(O)C4O)C5(C)C)C2(C)CCC13O (stereo not drawn) [Inornatoside A (1)]")
3530

Please examine the following record next.
Consider the molecule O=C1c2c(O)ccc(O)c2C(=O)c2c(NCCNCCO)ccc(NCCNCCO)c21 [Mitoxantrone, reference compound] and give its measured IC50. 550

* * *

System: cancer cell lines U251, PC-3, K562, HCT-15, MCF-7, SKLU-1
Test: SRB cytotoxicity assay, panel of six cancer cell lines
Format: cell-based, human
Conditions: Homo sapiens, span over the evaluated cell lines, SRB method; read-out: IC50 values across the tested cancer cell lines
pIC50: −log10 of the molar value.
readout: pIC50

>>> measured_value("CC(=O)OC(C)(C)CCCC1(C)OC(=O)C23C(O)C=C4C(CCC5C4(C)CCC(OC4OCC(OS(=O)(=O)O)C(O)C4OC4OC(C)C(O)C(O)C4O)C5(C)C)C2(C)CCC13O (stereo not drawn) [Inornatoside A (1)]")
"5.27 to 5.45"
>>> measured_value("COC1C(O)C(CO)OC(OC2C(O)C(CO)OC(OC3C(C)OC(OC4C(OC5CCC6(C)C7=CC(O)C89C(=O)OC(C)(CCCC(C)(C)OC(C)=O)C8(O)CCC9(C)C7CCC6C5(C)C)OCC(OS(=O)(=O)O)C4O)C(O)C3O)C2O)C1O (stereo not drawn) [Inornatoside B (2)]")
"5.98 to 6.33"

Please examine the following record next.
Consider the compound O=C1c2c(O)ccc(O)c2C(=O)c2c(NCCNCCO)ccc(NCCNCCO)c21 [Mitoxantrone, reference compound] and give its measured pIC50. 5.94 to 6.26

* * *

System: human lung adenocarcinoma (SKLU-1)
Test: SRB cytotoxicity assay, SKLU-1
Format: cell-based
Details: SK-LU-1, SRB method, 48 h exposure, ± SD, read-out: Cell Line IC50 SKLU-1
Catalogue of molecules with associated pIC50
// pIC50: -log10(molar conc.)

>>> measured_value("O=C1c2c(O)ccc(O)c2C(=O)c2c(NCCNCCO)ccc(NCCNCCO)c21 [Mitoxantrone, reference compound]")
5.94
>>> measured_value("COC1C(O)C(CO)OC(OC2C(O)C(CO)OC(OC3C(C)OC(OC4C(OC5CCC6(C)C7=CC(O)C89C(=O)OC(C)(CCCC(C)(C)OC(C)=O)C8(O)CCC9(C)C7CCC6C5(C)C)OCC(OS(=O)(=O)O)C4O)C(O)C3O)C2O)C1O (stereo not drawn) [Inornatoside B (2)]")
6.30

Which measured pIC50 belongs to CC(=O)OC(C)(C)CCCC1(C)OC(=O)C23C(O)C=C4C(CCC5C4(C)CCC(OC4OCC(OS(=O)(=O)O)C(O)C4OC4OC(C)C(O)C(O)C4O)C5(C)C)C2(C)CCC13O (stereo not drawn) [Inornatoside A (1)] , tested on human lung adenocarcinoma (SKLU-1)? 5.44
